Value source: PubChem BioAssay (NCATS)

details: Ebola virus entry assay, blue channel fluorescence
Active and inactive are the calls of the source. The rule behind the calls is not given here.
Please state which outcome applies, choosing from y (active), n (inactive)

Worked examples, 2 compounds total:
COMPOUND: CCN(CC)C(C)CN1c2ccccc2Sc2ccccc21 (stereo unspecified)
ASSIGNED_CLASS: n

COMPOUND: CCOc1ccccc1OCC1CNCCO1 (stereo unspecified)
ASSIGNED_CLASS: n

Lab note: next compound to report on.
Inquiry: What is the recorded call for this compound in the test? CC(C)(C)NCC(O)COc1ccc(NC(=O)NC2CCCCC2)cc1 (stereo unspecified)
Reply text: y

---

assay: qHTS profiling for inhibitors of Plasmodium falciparum proliferation (AID 504749);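 note: 0% = DMSO vehicle and full inhibition = artemisinin control; nearly all actives have a fitted effect of over 60% in size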; conditions: P. falciparum in erythrocytes, SYBR Green DNA, 72 h; at 28.7 µM (top of the series); parasite line A
Results filed as inconclusive are left out. Activity calls are given as the source filed them. Calls come from the whole dose curve; as a rule, active = well fitted inhibition curve with a large enough effect; inconclusive = small, poorly fitted or top-dose-only effect; inactive = flat fitted curve, though single readings scatter.
Please respond with reported activity, negative = inhibition for every item in the list.

Previously resolved entries follow.
MOLECULE: CCCCCCC(=O)CCCCCC/C=C/C[C@@H](O)[C@H](O)[C@@](N)(CO)C(=O)O
READOUT_NAME: activity, negative = inhibition
RESULT: 16.1% (inactive)
//
MOLECULE: NCCc1ccc(O)cc1
READOUT_NAME: activity, negative = inhibition
RESULT: 8.86% (inactive)
//
MOLECULE: COP(=S)(OC)SCN1C(=O)c2ccccc2C1=O
READOUT_NAME: activity, negative = inhibition
RESULT: 6.4% (inactive)
//
MOLECULE: O=C1CN=C(c2ccccc2)c2cc([N+](=O)[O-])ccc2N1
READOUT_NAME: activity, negative = inhibition
RESULT: 0.461% (inactive)
//
MOLECULE: C[C@]12CCC(=O)C=C1CC[C@@H]1[C@@H]2CC[C@]2(C)C(=O)CC[C@@H]12
READOUT_NAME: activity, negative = inhibition
RESULT: -9.45% (inactive)

Your task in this section: give activity, negative = inhibition for each listed record.
1. CN1C(=O)COc2c(C(=O)NC3CN4CCC3CC4)cc(Cl)cc21 (stereo not given)
2. Oc1ccc(Cl)cc1
3. O=C1c2ccccc2C(=O)C1C(=O)C(c1ccccc1)c1ccccc1
4. NNc1ccccc1
5. CCOC(=O)CC(SP(=S)(OC)OC)C(=O)OCC (stereo not given)

Reply text:
7.89% (inactive)
0.659% (inactive)
4.21% (inactive)
7.49% (inactive)
10.2% (inactive)

Your task in this section: give activity, negative = inhibition for each listed record.
1. O=C1Nc2ccc(Cl)cc2C(c2ccccc2)=NC1O (stereo not given)
2. Cc1nnc2n1-c1ccc(Cl)cc1C(c1ccccc1)=NC2
3. c1ccc2c(c1)sc1ccccc12
4. CC(C)NC(C)C
5. O=P1(N(CCCl)CCCl)NCCCO1 (stereo not given)
6. CN1C(=O)CCS(=O)(=O)C1c1ccc(Cl)cc1 (stereo not given)
7. CN1C(=O)CC(=O)N(c2ccccc2)c2cc(Cl)ccc21
8. COC(=O)C(c1ccccc1)C1CCCCN1 (stereo not given)

Reply text:
1. -1.71% (inactive)
2. -6.67% (inactive)
3. -4.2% (inactive)
4. 6.47% (inactive)
5. 11.3% (inactive)
6. -12.8% (inactive)
7. 1.1% (inactive)
8. 10.8% (inactive)

Your task in this section: give activity, negative = inhibition for each listed record.
1. COc1ccc2c(c1)C13CCCC[C@@H]1C(C2)N(C)CC3 (stereo not given in full)
2. NC(=O)CS(=O)C(c1ccccc1)c1ccccc1 (stereo not given)
3. CCC1(CC)C(=O)C=CNC1=O
4. Cc1ncsc1CCCl
5. CCC1(c2ccccc2)C(=O)N(COC)C(=O)N(COC)C1=O
6. Clc1cccc(SC2CCNCC2)n1
7. O=C(O)CCCc1ccc(N(CCCl)CCCl)cc1
8. Nc1ccccc1C(=O)O

Reply text:
["4.6% (inactive)", "11.3% (inactive)", "10.7% (inactive)", "12% (inactive)", "4.41% (inactive)", "12.4% (inactive)", "-9.59% (inactive)", "15.6% (inactive)"]

Your task in this section: give activity, negative = inhibition for each listed record.
1. Clc1ccc(C(c2ccc(Cl)cc2)C(Cl)(Cl)Cl)cc1
2. CC(C)(C)NCC(O)c1ccccc1Cl (stereo not given)
3. CC(C)c1cccc(C(C)C)c1O
4. O=C(Nc1ccc(Br)cc1)c1cc(Br)cc(Br)c1O

Reply text:
4.12% (inactive)
-1.78% (inactive)
13.6% (inactive)
6.84% (inactive)
